Each entry below carries its reported GFP MFI, FIG. 8.
test system: GFPY40 reporter (GFP containing an amber codon) in HEK293 cells stably expressing pylRS; experiment: Amber suppression-dependent GFP expression (GFPY40 reporter), transient transfection, flow cytometry; format: cell-based; conditions: 1 ug PCR product of each construct; lys azide nnAA; three days

molecule	GFP MFI, FIG. 8
Vault WT tRNA: WT tRNApyl downstream of the Vault promoter 5′ region (nucleic acid, Synthetic sequence Vault tRNA-WT construct, WT tRNApyl downstream of the Vault promoter 5′ region) DNA: TGGTCGCTGAGTCATGCTGAAGCACTCTCTTTTTGACTCACTCTTTGTGACGTAGGTCTTTCTCACCAGTCAATAAAATATAATCCGAAAGCAACCTCCCACCAGGAAACCTGATCATGTAGATCGAATGGACTCTAAATCCGTTCAGCCGGGTTAGATTCCCGGGGTTTCCGGACAAGTGCGGTTTTT	102,415
7SL A2B: tRNA-A2B downstream of the 7SL promoter 5′ region (nucleic acid, Synthetic sequence 7SL tRNA-A2B construct, tRNA-A2B downstream of the 7SL promoter 5′ region) DNA: CCCAGTTGATGACGTCACCATACCACAGCTTCTAGTGCTATTCTGCGCCGGTATCCGACCACCAGGAAACCTGGTCAAGTAGATCGAATGGACTCTAAATCCGTTCAGCCGGGTTCGATTCCCGGGGTTTCCGGACAAGTGCGGTTTTT	245,120
Vault B tRNA: tRNA-B downstream of the Vault promoter 5′ region (nucleic acid, Synthetic sequence Vault tRNA-B construct, tRNA-B downstream of the Vault promoter 5′ region) DNA: TGGTCGCTGAGTCATGCTGAAGCACTCTCTTTTTGACTCACTCTTTGTGACGTAGGTCTTTCTCACCAGTCAATAAAATATAATCCGAAAGCAACCTCCCACCAGGAAACCTGATCATGTAGATCGAATGGACTCTAAATCCGTTCAGCCGGGTTCGATTCCCGGGGTTTCCGGACAAGTGCGGTTTTT	170,838
